Item-by-item account of percent infected
tested on: Sindbis virus TE/5'2J-GFP; test: percent infected (GFP+ in RFP+ ISG-expressing cells); higher = more infection (less antiviral activity); settings: experiment: confirmatory screen 1; BHK/NZAP-Zeo (ZAP)
Answer in %, number only, no unit symbol.

[[record]]
sequence_chain = "MALLLALSLLVLWTSPAPTLSGTNDAEDCCLSVTQKPIPGYIVRNFHYLLIKDGCRVPAVVFTTLRGRQLCAPPDQPWVERIIQRLQRTSAKMKRRSS [CCL19]"
reported_endpoint = "percent infected"
reading_unit = "%"
test_value = 81.5

[[record]]
sequence_chain = "MHQSLTQQRSSDMSLPDSMGAFNRRKRNSIYVTVTLLIVSVLILTVGLAATTRTQNVTVGGYYPGVILGFGSFLGIIGSNLIENKRQMLVASIVFISFGVIAAFCCAIVDGVFAARHIDLKPLYANRCHYVPKTSQKEAEEVISSSTKNSPSTRVMRNLTQAAREVNCPHLSREFCTPRIRGNTCFCCDLYNCGNRVEITGGYYEYIDVSSCQDIIHLYHLLWSATILNIVGLFLGIITAAVLGGFKDMNPTLPALNCSVENTHPTVSYYAHPQVASYNTYYHSPPHLPPYSAYDFQHSGVFPSSPPSGLSDEPQSASPSPSYMWSSSAPPRYSPPYYPPFEKPPPYSP [FAM70A]"
reported_endpoint = "percent infected"
reading_unit = "%"
test_value = 75.9


Now consider a different sequence.
Query: Answer with the recorded percent infected for the sequence listed here: MEKGPVRAPAEKPRGARCSNGFPERDPPRPGPSRPAEKPPRPEAKSAQPADGWKGERPRSEEDNELNLPNLAAAYSSILSSLGENPQRQGLLKTPWRAASAMQFFTKGYQETISDVLNDAIFDEDHDEMVIVKDIDMFSMCEHHLVPFVGKVHIGYLPNKQVLGLSKLARIVEIYSRRLQVQERLTKQIAVAITEALRPAGVGVVVEATHMCMVMRGVQKMNSKTVTSTMLGVFREDPKTREEFLTLIRS [GCH1]
Reply: 74

* * *

Entries annotated with measured percent infected
test system: Sindbis virus TE/5'2J-GFP; experiment: percent infected (GFP+ in RFP+ ISG-expressing cells); higher = more infection (less antiviral activity); conditions: experiment: confirmatory screen 3; BHK/HA-Zeo (control);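 note: Interferon-defective BHK-21 derivatives, ZAP line overexpressing the rat ZAP N-terminal zinc finger domain fused to Zeocin resistance, GFP scored within live singlet TagRFP+ cells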
Only the number, expressed in %, is required.

[[record]]
sequence_chain = "MRSRLLLSVAHLPTIRETTEEMLLGGPGQEPPPSPSLDDYVRSISRLAQPTSVLDKATAQGQPRPPHRPAQACRKGRPAVSLRDITARFSGQQPTLPMADTVDPLDWLFGESQEKQPSQRDLPRRTGPSAGLWGPHRQMDSSKPMGAPRGRLCEARMPGHSLARPPQDGQQSSDLRSWTFGQSAQAMASRHRPRPSSVLRTLYSHLPVIHEL [C10orf10]"
reported_endpoint = "percent infected"
test_value = 94.2


Query sequence follows.
Query: Report value only: percent infected, Sindbis virus TE/5'2J-GFP, MDAPHSKAALDSINELPENILLELFTHVPARQLLLNCRLVCSLWRDLIDLMTLWKRKCLREGFITKDWDQPVADWKIFYFLRSLHRNLLRNPCAEEDMFAWQIDFNGGDRWKVESLPGAHGTDFPDPKVKKYFVTSYEMCLKSQLVDLVAEGYWEELLDTFRPDIVVKDWFAARADCGCTYQLKVQLASADYFVLASFEPPPVTIQQWNNATWTEVSYTFSDYPRGVRYILFQHGGRDTQYWAGWYGPRVTNSSIVVSPKMTRNQASSEAQPGQKHGQEEAAQSPYRAVVQIF [FBXO6]
Reply: 90.9
